- TESTED_ON: E. coli MurF (Escherichia coli)
- Sequence (P11880 whole entry): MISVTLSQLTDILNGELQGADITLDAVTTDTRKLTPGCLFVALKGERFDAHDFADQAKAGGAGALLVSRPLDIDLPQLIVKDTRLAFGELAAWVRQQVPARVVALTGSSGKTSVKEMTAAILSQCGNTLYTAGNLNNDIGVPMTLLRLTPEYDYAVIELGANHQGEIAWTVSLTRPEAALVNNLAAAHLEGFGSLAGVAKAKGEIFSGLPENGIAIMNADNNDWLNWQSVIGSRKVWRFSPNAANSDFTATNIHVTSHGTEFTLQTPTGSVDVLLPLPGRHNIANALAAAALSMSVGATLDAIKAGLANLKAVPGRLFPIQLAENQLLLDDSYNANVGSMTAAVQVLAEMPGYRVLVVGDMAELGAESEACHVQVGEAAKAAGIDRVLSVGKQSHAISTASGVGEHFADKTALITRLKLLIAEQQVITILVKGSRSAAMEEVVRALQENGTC
- MEASUREMENT_DESCRIPTION: biochemical
- MEASUREMENT_PARAMETERS: 0.25 h, Table S1, PKIS screening; read-out: RA [%] at 100 µM MurF
QUANTITY_KIND: remaining activity at 100 µM (%)
Give just the numeric value; % need not be written.

Enquiry: Entry Cn1c(-c2nonc2N)nc2cnccc21 : reported remaining activity at 100 µM = ?
Return: 90

Enquiry: # get_value(readout='remaining activity at 100 µM', item= [O-][S+]1CCN(Cc2ccc(-c3ccc4ncnc(Nc5ccc(OCc6ccccc6)c(Cl)c5)c4c3)o2)CC1 [GW583373A] )
Return: 60

Enquiry: Which remaining activity at 100 µM value is on record for COc1cc(Nc2nccc(-c3cnn4ncccc34)n2)cc(OC)c1 [GW801372X] ?
Return: 80

Enquiry: For the molecule shown here, COc1cccc(-n2ncc3c(N/N=C/c4ccc(C)cc4)ncnc32)c1 [GW829877X] , give the reported remaining activity at 100 µM.
Return: 76

Enquiry: Quick check: remaining activity at 100 µM of COC(=O)Nc1nc2ccc(S(=O)(=O)c3ccc(NC(=O)Nc4cc(C(F)(F)F)ccc4F)cc3)cc2[nH]1 [GW680908A] ?
Return: 97

Enquiry: Using the record for COc1cc(N2CCN(C(C)C)CC2)ccc1Nc1nc(Nc2ccc(F)cc2C(=O)NC[C@@H](O)CO)c2cc[nH]c2n1 [GSK1392956A] , report its remaining activity at 100 µM.
Return: 90

Enquiry: For the molecule COC(=O)Nc1nc2ccc(Sc3ccc(NC(=O)Nc4cc(C(F)(F)F)ccc4F)cc3)cc2[nH]1 [GW607049C] , what remaining activity at 100 µM is on record?
Return: 91

Enquiry: Requested field: remaining activity at 100 µM. Item: CCCN1CCCC(c2ccc(Nc3nc(Nc4cc(F)ccc4C(N)=O)c4cc[nH]c4n3)c(OC)c2)C1 (centres unmarked)
Return: 16

Enquiry: Param item = NC(=O)c1ccc(Oc2nccc(-c3c(-c4ccc(F)cc4)ncn3C3CCNCC3)n2)cc1 ; retrieve measured remaining activity at 100 µM.
Return: 69

Enquiry: Look up remaining activity at 100 µM for this molecule: N#Cc1cccc(Nc2ncc(-c3ccccc3)o2)c1 [GW627834A]
Return: 85

Enquiry: For the molecule shown here, COc1cc2c(cc1Nc1nc(N3CCc4ccccc43)c3cc[nH]c3n1)N(C(=O)CN(C)C)CC2 [GSK2186269A] , give the reported remaining activity at 100 µM.
Return: 26

Source: paper PMC6522912
